Tested on: MS2 coat protein
Assay: apparent KD of MS2 coat protein; designed switch direction (-1 OFF switch, 1 ON switch): -1; higher = weaker reporter binding
Settings: input ligand: microRNA oligo, concentration not stated
Form field: apparent KD of MS2 coat protein (one value per entry).

Examples with their reported apparent KD of MS2 coat protein follow.
GCGGACAAGAUGGUGACAUCAGAGACAUGAGGAUCACCCAUGUAGGAUAUCGAUUCGAAACGAAUCGAGAAGGGCAUAGUCCGC [JL denovo 3] (Eterna round: R96, puzzle: Exclusion NG 3) : 190 nM
CGGCACCGAGGAUAUACAUGAGGAUCACCCAUGUUUGUUGGGCCCUUAAGAUCUACGUGUAGAAGGUGGGUCGA [Edaribi] (Eterna round: R96, puzzle: Exclusion 3) : 147 nM
CCUCUUGGGCAAGGAUAUCCUGCGCGGUUCCGGUUCGUGUCUGUCACAUGAGGAUCACCCAUGUGGGAGAAGGUGCCUGCGGUC [Design 78] (Eterna round: R96, puzzle: Exclusion NG 2) : 12 nM
AGCGCCAUCGUGAGAUGGCGUAUUACAUGAGGAUCACCCAUGUAGGAUAUCGAUUGCUUUGCAGUCGAGAAGGACAUGUCCUAG [JL ENG3 3.80 Mod F] (Eterna round: R96, puzzle: Exclusion NG 3) : 23.4 nM
UACAUGAGGAUCACCCAUGUUUUGUCGUGUAUGGUAUUUAUCUAGGAUAUCAAGUUAUUAAUUUAUGAGAAGGAGAAUAUUAAU [JMF's solution 32] (Eterna round: R96, puzzle: Exclusion NG 3) : 27.4 nM
UGAGGACAUGAGGAUCACCCAUGUAAGGAUAUGCGGAGAGUUUGGAGAGGUUGAGGAGGCAGAAGGUACGGGAU [JR_Exclu1_Sub046] (Eterna round: R96, puzzle: Exclusion 1) : 47.4 nM

Turning to the following sequence.
Exercise: Please report the measured apparent KD of MS2 coat protein for GUACUGAAGCUUUGCUUUAGUCGUACAUGAGGAUCACCCAUGUAGGAUAUGGUAGGCUUUGCUUACUAGAAGGAUAGAGUGAUC [JL EXNG3 1.27] (Eterna round: R96, puzzle: Exclusion NG 3)
Solution: 31.7 nM

Reference source for all entries: the supplement of paper PMC9170038
